Consider the following compounds and their measured cell viability readings.
System: P12-Ichikawa
assay: cell viability relative to DMSO control; higher = less cytotoxic
settings: RPMI 5 mM glucose + 10% dialyzed FBS; 48 h; 5.12 µM

>  <compound>
CC(C)(C)NCC(O)c1ccc(O)c(CO)c1 (configuration not stated)

>  <unit_of_measure>
%

>  <cell viability>
80.8

$$$$
>  <compound>
Cc1nc(-c2ccc(-c3ccc(C(=O)N4CCc5cc6c(cc54)C4(CCN(C)CC4)CO6)cc3)c(C)c2)no1

>  <unit_of_measure>
%

>  <cell viability>
115

$$$$
>  <compound>
CCN1\C=C(C(O)=O)/C(=O)C2=C1C(=C(N3CCNC(C)C3)C(=C2)F)F (configuration not stated)

>  <unit_of_measure>
%

>  <cell viability>
124

$$$$
>  <compound>
O=c1oc2cc(O)ccc2s1

>  <unit_of_measure>
%

>  <cell viability>
100

$$$$
>  <compound>
CN(C)CCc1c[nH]c2ccc(Cn3cncn3)cc12

>  <unit_of_measure>
%

>  <cell viability>
7.34

$$$$
>  <compound>
Nc1ncnc2nc(-c3ccc(N4CCOCC4)nc3)cc(-c3cccc(Br)c3)c12

>  <unit_of_measure>
%

>  <cell viability>
115

$$$$
>  <compound>
CCC[C@H](Nc1nc(-c2ccc(NC(=O)NCC)c(OC)c2)ncc1C)c1cccnc1

>  <unit_of_measure>
%

>  <cell viability>
11

$$$$
>  <compound>
C[C@@H]1CC[C@@]2(CC[C@]3(C)\C(=C/C[C@@H]4[C@@]5(C)C[C@@H](O)[C@H](O)[C@@](C)(CO)[C@@H]5CC[C@@]34C)[C@@H]2[C@H]1C)C(O)=O

>  <unit_of_measure>
%

>  <cell viability>
125

$$$$
>  <compound>
CC[C@H](CO)Nc1nc(NCc2ccccc2)c2ncn(C(C)C)c2n1

>  <unit_of_measure>
%

>  <cell viability>
87.3

$$$$
>  <compound>
Cc1nc2ccc(CN(C)c3ccc(C(=O)N[C@@H](CCC(=O)O)C(=O)O)s3)cc2c(=O)[nH]1

>  <unit_of_measure>
%

>  <cell viability>
28.5

$$$$
>  <compound>
C=C1CCC2[C@](C)(CO)C(O)CC[C@]2(C)C1C/C=C1/C(=O)OCC1O (some centres not stated)

>  <unit_of_measure>
%

>  <cell viability>
98.7

$$$$
>  <compound>
CCOc1ccccc1N/N=C1/C(=O)N(c2nc(-c3ccccc3)cs2)N=C1C

>  <unit_of_measure>
%

>  <cell viability>
106

$$$$

====

Test system: P12-Ichikawa
assay: cell viability relative to DMSO control; higher = less cytotoxic
settings: RPMI 5 mM glucose + 10% dialyzed FBS; 48 h; 0.19 µM
cell viability values, listed per item
experimental_endpoint: cell viability (%)

>  <compound>
Nc1nccc(-c2ccc3noc(-c4ccc(Cl)cc4)c3c2)n1

>  <experimental_target>
P12-Ichikawa

>  <result>
115

$$$$
>  <compound>
Clc1ccc(C(c2ccccc2Cl)C(Cl)Cl)cc1 (configuration not stated)

>  <experimental_target>
P12-Ichikawa

>  <result>
107

$$$$
>  <compound>
CCC(=O)N1CCN(CC1)C2=C(C=C(C=C2)N3C(=O)\C=C/C4=C3C5=CC(=CC=C5N=C4)C6=CN=C7C=CC=CC7=C6)C(F)(F)F

>  <experimental_target>
P12-Ichikawa

>  <result>
71.2

$$$$
>  <compound>
OC1=C(Cl)C=C(N\C2=C(\C(=O)NC2=O)C3=C(C=CC=C3)[N+]([O-])=O)C=C1

>  <experimental_target>
P12-Ichikawa

>  <result>
109

$$$$
>  <compound>
CCC[C@H](Nc1nc(-c2ccc(NC(=O)NCC)c(OC)c2)ncc1C)c1cccnc1

>  <experimental_target>
P12-Ichikawa

>  <result>
18.1

$$$$
>  <compound>
COc1cccc(OC)c1-c1cc(C(=O)NC2(C(=O)O)C3CC4CC(C3)CC2C4)nn1-c1ccnc2cc(Cl)ccc12 (configuration not stated)

>  <experimental_target>
P12-Ichikawa

>  <result>
110

$$$$
>  <compound>
CCOc1ccccc1N/N=C1/C(=O)N(c2nc(-c3ccccc3)cs2)N=C1C

>  <experimental_target>
P12-Ichikawa

>  <result>
108

$$$$
>  <compound>
CNC(=O)c1nn(C)c2c1C(C)(C)Cc1cnc(Nc3ccc(N4CCN(C)CC4)cc3)nc1-2

>  <experimental_target>
P12-Ichikawa

>  <result>
115

$$$$
>  <compound>
CCN(CC)CCCC(C)Nc1ccnc2cc(Cl)ccc12 (configuration not stated)

>  <experimental_target>
P12-Ichikawa

>  <result>
101

$$$$
>  <compound>
CC[C@H](C)C(=O)O[C@H]1C[C@@H](C)\C=C2\C=C/[C@H](C)[C@H](CC[C@@H]3C[C@@H](O)CC(=O)O3)[C@@H]12

>  <experimental_target>
P12-Ichikawa

>  <result>
88.3

$$$$
>  <compound>
N#Cc1cc(NC(=O)Nc2nnc(-c3ccncc3)s2)ccc1-c1cn[nH]c1

>  <experimental_target>
P12-Ichikawa

>  <result>
126

$$$$
>  <compound>
CC(C)(Sc1cc(C(C)(C)C)c(O)c(C(C)(C)C)c1)Sc1cc(C(C)(C)C)c(O)c(C(C)(C)C)c1

>  <experimental_target>
P12-Ichikawa

>  <result>
87.6

$$$$
>  <compound>
Cc1nnc(C(C)C)n1[C@@H]1C[C@H]2CC[C@@H](C1)N2CC[C@H](NC(=O)C1CCC(F)(F)CC1)c1ccccc1

>  <experimental_target>
P12-Ichikawa

>  <result>
105

$$$$
>  <compound>
O=C(Nc1cccnc1)N1CCC(Cc2cccc(Oc3ccc(C(F)(F)F)cn3)c2)CC1

>  <experimental_target>
P12-Ichikawa

>  <result>
88.4

$$$$
>  <compound>
CN(C)C(=O)[C@H](O)[C@H](Cc1ccccc1)NC(=O)c1cc2cc(Cl)ccc2[nH]1

>  <experimental_target>
P12-Ichikawa

>  <result>
131

$$$$
>  <compound>
O=C(O)c1cccnc1

>  <experimental_target>
P12-Ichikawa

>  <result>
102

$$$$
>  <compound>
CCOc1cc(C(=O)Nc2ccc(Cl)c(-c3nc4ccccc4[nH]3)c2)cc(OCC)c1OCC

>  <experimental_target>
P12-Ichikawa

>  <result>
81.2

$$$$

====

Item-by-item account of cell viability
System: P12-Ichikawa
assay: cell viability relative to DMSO control; higher = less cytotoxic
settings: RPMI 5 mM glucose + 10% dialyzed FBS; 48 h; 46.1 µM

>  <compound>
OC[C@H]1OC(O)C[C@@H](O)[C@@H]1O (some centres not stated)

>  <cell viability (%)>
110

$$$$
>  <compound>
CCC[C@H](Nc1nc(-c2ccc(NC(=O)NCC)c(OC)c2)ncc1C)c1cccnc1

>  <cell viability (%)>
7.87

$$$$
>  <compound>
CN(C)C(=O)[C@H](O)[C@H](Cc1ccccc1)NC(=O)c1cc2cc(Cl)ccc2[nH]1

>  <cell viability (%)>
70

$$$$
>  <compound>
c1coc(CNc2ncnc3nc[nH]c23)c1

>  <cell viability (%)>
105

$$$$
>  <compound>
CCCCCN(C)CCC(O)(P(=O)([O-])O)P(=O)(O)O

>  <cell viability (%)>
86.9

$$$$
>  <compound>
C=C1CCC2[C@](C)(CO)C(O)CC[C@]2(C)C1C/C=C1/C(=O)OCC1O (some centres not stated)

>  <cell viability (%)>
106

$$$$
>  <compound>
O=C(CCCN1CCC(O)(c2ccc(Cl)cc2)CC1)c1ccc(F)cc1

>  <cell viability (%)>
99.8

$$$$
>  <compound>
c1ccc2c(CN3CCNCC3)cccc2c1

>  <cell viability (%)>
41.1

$$$$
>  <compound>
CNC(=O)c1nn(C)c2c1C(C)(C)Cc1cnc(Nc3ccc(N4CCN(C)CC4)cc3)nc1-2

>  <cell viability (%)>
35.3

$$$$
>  <compound>
Cc1ccc(C(=O)Nc2ccc([S+](=O)([O-])O)c3cc([S+](=O)([O-])O)cc([S+](=O)([O-])O)c23)cc1NC(=O)c1cccc(NC(=O)Nc2cccc(C(=O)Nc3cc(C(=O)Nc4ccc([S+](=O)([O-])O)c5cc([S+](=O)([O-])O)cc([S+](=O)([O-])O)c45)ccc3C)c2)c1

>  <cell viability (%)>
42.9

$$$$
>  <compound>
CCC(=O)N1CCN(CC1)C2=C(C=C(C=C2)N3C(=O)\C=C/C4=C3C5=CC(=CC=C5N=C4)C6=CN=C7C=CC=CC7=C6)C(F)(F)F

>  <cell viability (%)>
54.4

$$$$
>  <compound>
CC(=O)OCC(=O)[C@@]1(O)CC[C@H]2[C@@H]3CCC/4=C/C(=O)/C=C\[C@]4(C)[C@H]3[C@@H](O)C[C@]12C

>  <cell viability (%)>
102

$$$$
>  <compound>
Cc1nc2ccc(CN(C)c3ccc(C(=O)N[C@@H](CCC(=O)O)C(=O)O)s3)cc2c(=O)[nH]1

>  <cell viability (%)>
26.9

$$$$
>  <compound>
COc1cccc(N(C)C(=S)Oc2ccc3c(c2)CCCC3)n1

>  <cell viability (%)>
81.1

$$$$
>  <compound>
CCCCN1CCC(CNC(=O)c2c3n(c4ccccc24)CCCO3)CC1

>  <cell viability (%)>
78.5

$$$$
>  <compound>
CN1CCN(CC1)C2=CC3=C([NH]C(=N3)C/4=C(\N)C5=C(F)C=CC=C5NC4=O)C=C2

>  <cell viability (%)>
29.4

$$$$
>  <compound>
O=C1c2ccccc2-c2n[nH]c3cccc1c23

>  <cell viability (%)>
16.4

$$$$
